Target: T1, CXCR4 (human), P61073
T1 chain: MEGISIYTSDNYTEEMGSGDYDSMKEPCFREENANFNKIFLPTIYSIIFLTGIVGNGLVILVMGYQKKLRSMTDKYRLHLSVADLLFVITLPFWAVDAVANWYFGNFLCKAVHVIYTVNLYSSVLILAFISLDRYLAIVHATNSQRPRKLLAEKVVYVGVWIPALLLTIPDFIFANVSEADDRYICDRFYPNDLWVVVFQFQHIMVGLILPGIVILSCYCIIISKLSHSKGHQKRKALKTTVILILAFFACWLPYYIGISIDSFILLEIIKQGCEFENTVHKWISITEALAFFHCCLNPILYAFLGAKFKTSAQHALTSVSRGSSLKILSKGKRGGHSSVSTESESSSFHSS
Assay: not stated; given as affinity constant
pKd: −log10 of the molar value. No end group written: not given here.
READOUT: pKd

Ask: Given the entry VAEKPCKSSTIRRYS (not fully specified (some residues)) [LRD peptide 2(1-15)[MCP-1]] , report its measured pKd.
Reply: > 7.00
